src = patent US11814371B2

protocolDescription: Pharmacokinetic test in rats after intravenous and intragastric administration (plasma, LC-MS/MS)
Format: in vivo
experimentalSetup: male, SD, po, rat, intragastric administration (group 2), nominal 30 mg/kg (actual dose in c2), read-out: Curve area (o-t) AUC0-last
measuredMetric: AUC(0-t) (µM·h)
Give just the number in µM·h; leave the unit off.

| smilesCode | measuredMetric | resultValue |
| --- | --- | --- |
| COc1ccc(F)c(CNC(=O)c2cn(Cc3ccc(Cn4ccccc4=O)c(F)c3)nc2C2COC2)c1F | AUC(0-t) | 1.84 |

// below: AUC(0-t) requested for another compound
Q: Quote AUC(0-t) reported for COc1ccc(F)c(CNC(=O)c2cn(Cc3ccc(Cn4cc(F)ccc4=O)c(F)c3)nc2C2COC2)c1F please.
A: 42.4

* * *

protocolDescription: Pharmacokinetic test in rats after intravenous and intragastric administration (plasma, LC-MS/MS)
Type: in vivo
experimentalSetup: male, SD, rat, intravenous administration, nominal 1 mg/kg (actual dose in c2), read-out: Apparent volume of distribution Vdss
measuredMetric: Vd (L/kg)
Please state the figure in L/kg; there is no need to write the unit.

| compound | Vd [L/kg] |
| --- | --- |
| COc1ccc(F)c(CNC(=O)c2cn(Cc3ccc(Cn4cc(F)ccc4=O)cc3)nc2C2COC2)c1F [Compound 1] | 0.202 |

Q: State its Vd for this compound: COc1ccc(F)c(CNC(=O)c2cn(Cc3ccc(Cn4ccccc4=O)cc3)nc2C2COC2)c1F [Compound 16]
A: 0.2

Q: Look up Vd of COc1ccc(Cl)c(CNC(=O)c2cn(Cc3ccc(Cn4cc(F)ccc4=O)cc3)nc2C2COC2)c1F [Compound 3] and report it.
A: 0.169

Q: // fetch Vd given entry COc1ccc(F)c(CNC(=O)c2cn(Cc3ccc(Cn4cc(F)ccc4=O)c(F)c3)nc2C2COC2)c1F [Compound 8]
A: 0.188

Q: Answer with the recorded Vd for the compound listed here: COc1ccc(Cl)c(CNC(=O)c2cn(Cc3ccc(Cn4ccccc4=O)cc3)nc2C2COC2)c1F [Compound 4]
A: 0.182

* * *

Reported values of half-life for individual entries
protocolDescription: Pharmacokinetic test in rats after intravenous and intragastric administration (plasma, LC-MS/MS)
Format: in vivo
experimentalSetup: male, SD, po, rat, intragastric administration (group 1), nominal 2 mg/kg (actual dose in c2), read-out: Half-life T½ (converted)
Please respond with the number in h and leave the unit unwritten.

# count of solved cases: 2
| compound | half-life / h |
| --- | --- |
| COc1ccc(F)c(CNC(=O)c2cn(Cc3ccc(Cn4cc(F)ccc4=O)cc3)nc2C2COC2)c1F [Compound 1] | 1.56 |
| COc1ccc(Cl)c(CNC(=O)c2cn(Cc3ccc(Cn4cc(F)ccc4=O)cc3)nc2C2COC2)c1F [Compound 3] | 1.37 |

Q: Please report the measured half-life for COc1ccc(Cl)c(CNC(=O)c2cn(Cc3ccc(Cn4ccccc4=O)cc3)nc2C2COC2)c1F [Compound 4]
A: 1.28

Q: Indicate its recorded half-life; the compound in question is COc1ccnc(CNC(=O)c2cn(Cc3ccc(Cn4cc(F)ccc4=O)cc3)nc2C2COC2)c1F [Compound 2]
A: 0.436

* * *

This listing pairs compounds with measured AUC(0-t).
protocolDescription: Pharmacokinetic test in rats after intravenous and intragastric administration (plasma, LC-MS/MS)
Type: in vivo
experimentalSetup: male, SD, rat, intravenous administration, nominal 1 mg/kg (actual dose in c2), read-out: Curve area (o-t) AUC0-last
Give the value in µM·h but do not write µM·h after it.

Previously resolved entries follow.
| compound | AUC(0-t), µM·h |
| --- | --- |
| COc1ccc(F)c(CNC(=O)c2cn(Cc3ccc(Cn4cc(F)ccc4=O)cc3)nc2C2COC2)c1F [Compound 1] | 4.35 |
| COc1ccc(Cl)c(CNC(=O)c2cn(Cc3ccc(Cn4ccccc4=O)cc3)nc2C2COC2)c1F [Compound 4] | 3.94 |
| COc1ccc(F)c(CNC(=O)c2cn(Cc3ccc(Cn4cc(F)ccc4=O)c(F)c3)nc2C2COC2)c1F [Compound 8] | 2.62 |
| COc1ccc(Cl)c(CNC(=O)c2cn(Cc3ccc(Cn4cc(F)ccc4=O)cc3)nc2C2COC2)c1F [Compound 3] | 5.49 |

Next compound, please.
Q: Output AUC(0-t) of COc1ccc(F)c(CNC(=O)c2cn(Cc3ccc(Cn4ccccc4=O)cc3)nc2C2COC2)c1F [Compound 16]
A: 4.37

* * *

Each entry below carries its reported bioavailability.
protocolDescription: Pharmacokinetic test in rats after intravenous and intragastric administration (plasma, LC-MS/MS)
Assay type: in vivo
experimentalSetup: male, SD, po, rat, intragastric administration (group 1), nominal 2 mg/kg (actual dose in c2), read-out: Bioavailability F
Use % as the unit, but write only the number.

Solved cases (4 shown):
| smilesCode | measurementUnit | resultValue |
| --- | --- | --- |
| COc1ccc(F)c(CNC(=O)c2cn(Cc3ccc(Cn4ccccc4=O)cc3)nc2C2COC2)c1F | % | 22.1 |
| COc1ccc(F)c(CNC(=O)c2cn(Cc3ccc(Cn4cc(F)ccc4=O)c(F)c3)nc2C2COC2)c1F | % | 11.2 |
| COc1ccc(Cl)c(CNC(=O)c2cn(Cc3ccc(Cn4cc(F)ccc4=O)cc3)nc2C2COC2)c1F | % | 19.3 |
| COc1ccc(F)c(CNC(=O)c2cn(Cc3ccc(Cn4cc(F)ccc4=O)cc3)nc2C2COC2)c1F | % | 15.3 |

// next entry
Q: Please look at this molecule and report its bioavailability: COc1ccc(Cl)c(CNC(=O)c2cn(Cc3ccc(Cn4ccccc4=O)cc3)nc2C2COC2)c1F
A: 22.7

* * *

testedOn: recombinant human plasma kallikrein (Human PKal) (Homo sapiens, UniProt P03952)
Construct: Gly20-Ala638 derived from NS0- with a 60-His appendage at the C-terminus; His tag ('60-His' [sic]) (C)
Sequence (P03952 20-638): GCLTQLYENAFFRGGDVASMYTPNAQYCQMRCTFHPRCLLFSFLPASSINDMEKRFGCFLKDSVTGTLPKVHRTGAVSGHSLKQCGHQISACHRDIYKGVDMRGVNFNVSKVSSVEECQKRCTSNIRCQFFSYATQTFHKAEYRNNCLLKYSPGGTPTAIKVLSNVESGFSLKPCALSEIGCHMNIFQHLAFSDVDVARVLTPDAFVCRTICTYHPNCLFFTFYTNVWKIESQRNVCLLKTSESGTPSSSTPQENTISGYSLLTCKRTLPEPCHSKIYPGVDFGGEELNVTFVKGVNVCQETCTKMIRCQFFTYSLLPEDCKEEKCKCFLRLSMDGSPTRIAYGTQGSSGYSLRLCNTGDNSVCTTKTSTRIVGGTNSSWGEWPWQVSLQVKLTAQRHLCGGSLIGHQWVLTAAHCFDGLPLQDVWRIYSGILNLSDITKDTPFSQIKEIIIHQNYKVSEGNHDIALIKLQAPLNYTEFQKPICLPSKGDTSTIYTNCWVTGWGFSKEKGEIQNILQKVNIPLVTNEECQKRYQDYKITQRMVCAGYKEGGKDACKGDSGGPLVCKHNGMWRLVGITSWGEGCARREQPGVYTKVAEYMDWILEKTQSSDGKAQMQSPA
protocolDescription: Inhibitory effect of test compounds on plasma kallikrein (PKal), fluorogenic substrate Z-FR-AMC
experimentalSetup: 10 µM Z-FR-AMC, 10 min pre-incubation
Structures can show the parent of a compound that is named as a salt.
// classify: if (IC50 < 0.6 nM) Met else Not met

These solved cases illustrate the format of a correct answer.
| compound | testedOn | labelClass |
| --- | --- | --- |
| COc1ccc(F)c(CNC(=O)c2cn(Cc3ccc(Cn4cc(F)ccc4=O)c(F)c3)nc2C2COC2)c1F [Compound 8] | recombinant human plasma kallikrein (Human PKal) (Homo sapiens, UniProt P03952) | Met |
| COc1ccnc(CNC(=O)c2cn(Cc3ccc(Cn4cc(F)ccc4=O)cc3)nc2C2(C)COC2)c1F [Compound 9] | recombinant human plasma kallikrein (Human PKal) (Homo sapiens, UniProt P03952) | Not met |
| COc1ccc(F)c(CNC(=O)c2cn(Cc3ccc(Cn4ccccc4=O)c(F)c3)nc2C2COC2)c1F [Compound 7] | recombinant human plasma kallikrein (Human PKal) (Homo sapiens, UniProt P03952) | Met |

Q: Just wondering, is IC50 of COc1ccc(Cl)c(CNC(=O)c2cn(Cc3ccc(Cn4ccccc4=O)cc3)nc2C2COC2)c1F [Compound 4] below 0.6 nM?
A: Met

Q: Please check: IC50 for COc1ccc(F)c(CNC(=O)c2cn(Cc3ccc(Cn4ccccc4=O)cc3)nc2C2COC2)c1F [Compound 16] , strictly under 0.6 nM or not?
A: Not met

Q: Decide: IC50 of COc1ccnc(CNC(=O)c2cn(Cc3ccc(Cn4cc(F)ccc4=O)cc3)nc2C2CN(CC(F)(F)F)C2)c1F [Compound 15] strictly below 0.6 nM?
A: Not met

Q: Is 0.6 nM strictly greater than the compound's reported IC50? compound: COc1ccc(F)c(CNC(=O)c2cn(Cc3ccc(Cn4ccccc4=O)cc3)nc2C2CNC2)c1F [Hydrochloride of compound 11]
A: Met

* * *

This listing pairs molecules with measured AUC(0-t).
protocolDescription: Pharmacokinetic test in rats after intravenous and intragastric administration (plasma, LC-MS/MS)
Format: in vivo
experimentalSetup: male, SD, po, rat, intragastric administration (group 1), nominal 2 mg/kg (actual dose in c2), read-out: Curve area (o-t) AUC0-last
Procedure: Male SD rats were used as test animals, and LC-MS/MS method was used to determine the drug concentrations in plasma of rats at different times after intravenous and intragastric administration of test compounds. The pharmacokinetic behaviors of the compounds in rats were studied and the pharmacokinetic characteristics were evaluated. 2.2 Test animals: 28 healthy adult male SD rats were divided into 14 groups with 2 rats in each group. […]
Provide only the numeric value, understood in µM·h.

| smilesCode | AUC(0-t) (µM·h) |
| --- | --- |
| COc1ccnc(CNC(=O)c2cn(Cc3ccc(Cn4cc(F)ccc4=O)cc3)nc2C2COC2)c1F | 0.241 |
| COc1ccc(Cl)c(CNC(=O)c2cn(Cc3ccc(Cn4ccccc4=O)cc3)nc2C2COC2)c1F | 1.79 |
| COc1ccc(F)c(CNC(=O)c2cn(Cc3ccc(Cn4cc(F)ccc4=O)cc3)nc2C2COC2)c1F | 1.33 |
| COc1ccc(Cl)c(CNC(=O)c2cn(Cc3ccc(Cn4cc(F)ccc4=O)cc3)nc2C2COC2)c1F | 2.11 |
| COc1ccnc(CNC(=O)c2cn(Cc3ccc(Cn4ccccc4=O)cc3)nc2C2COC2)c1F | 0.237 |
| COc1ccc(F)c(CNC(=O)c2cn(Cc3ccc(Cn4cc(F)ccc4=O)c(F)c3)nc2C2COC2)c1F | 0.584 |
| COc1ccc(F)c(CNC(=O)c2cn(Cc3ccc(Cn4cc(F)ccc4=O)nc3)nc2C2COC2)c1F | 0.653 |

For the next question, use this molecule.
Q: Answer with reported AUC(0-t) of COc1ccc(F)c(CNC(=O)c2cn(Cc3ccc(Cn4ccccc4=O)cc3)nc2C2COC2)c1F
A: 1.93
